Provide the recorded pKd for the entries that follow.
System under test: T1, Factor VIIIa (FVIIIa), from recombinant FVIII (Kogenate FS; Bayer healthcare) activated with alpha-thrombin (UniProt P00451 20-2351)
T1 sequence (looked up): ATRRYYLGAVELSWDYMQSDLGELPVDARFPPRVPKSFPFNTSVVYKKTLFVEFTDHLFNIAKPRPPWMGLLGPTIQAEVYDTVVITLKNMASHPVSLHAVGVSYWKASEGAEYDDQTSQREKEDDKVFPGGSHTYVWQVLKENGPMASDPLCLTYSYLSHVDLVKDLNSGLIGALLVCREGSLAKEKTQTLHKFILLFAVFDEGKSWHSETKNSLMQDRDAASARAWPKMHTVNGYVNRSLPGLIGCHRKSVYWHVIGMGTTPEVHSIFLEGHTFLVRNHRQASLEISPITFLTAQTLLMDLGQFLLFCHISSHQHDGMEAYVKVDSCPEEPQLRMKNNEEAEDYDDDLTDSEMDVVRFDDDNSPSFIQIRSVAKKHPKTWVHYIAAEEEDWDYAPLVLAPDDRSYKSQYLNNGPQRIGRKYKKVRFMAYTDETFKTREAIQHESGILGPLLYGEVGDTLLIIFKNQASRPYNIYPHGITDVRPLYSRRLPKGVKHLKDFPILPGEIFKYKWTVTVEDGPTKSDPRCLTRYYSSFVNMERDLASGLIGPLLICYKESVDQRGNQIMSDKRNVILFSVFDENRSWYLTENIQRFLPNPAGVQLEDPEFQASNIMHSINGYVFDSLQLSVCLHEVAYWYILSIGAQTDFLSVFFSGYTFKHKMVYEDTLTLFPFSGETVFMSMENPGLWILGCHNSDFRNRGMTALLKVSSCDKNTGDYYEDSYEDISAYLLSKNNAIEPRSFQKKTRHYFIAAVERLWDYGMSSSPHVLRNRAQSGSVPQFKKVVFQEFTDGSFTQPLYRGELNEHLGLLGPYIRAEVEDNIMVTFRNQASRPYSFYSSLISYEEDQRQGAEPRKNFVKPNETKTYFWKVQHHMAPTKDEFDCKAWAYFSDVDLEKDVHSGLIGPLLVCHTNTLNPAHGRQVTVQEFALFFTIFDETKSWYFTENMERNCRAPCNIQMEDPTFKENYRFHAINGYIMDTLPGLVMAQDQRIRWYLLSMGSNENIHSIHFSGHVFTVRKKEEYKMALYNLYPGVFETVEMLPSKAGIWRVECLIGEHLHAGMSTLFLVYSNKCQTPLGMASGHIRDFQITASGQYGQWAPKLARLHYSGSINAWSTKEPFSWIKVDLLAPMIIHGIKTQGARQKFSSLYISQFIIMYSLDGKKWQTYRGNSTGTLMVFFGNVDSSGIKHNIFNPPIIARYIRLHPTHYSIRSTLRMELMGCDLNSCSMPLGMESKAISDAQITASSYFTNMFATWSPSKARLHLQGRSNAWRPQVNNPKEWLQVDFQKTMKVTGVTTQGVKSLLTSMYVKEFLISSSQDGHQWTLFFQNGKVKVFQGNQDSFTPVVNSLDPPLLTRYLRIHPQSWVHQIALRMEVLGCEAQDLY
Experimental protocol: apparent functional KD (KD-app): FX activation rate vs FVIIIa titration, fluorogenic Xase assay with PC/PS vesicles and Ca2+
One number for each entry, as −log10 of the molar value.

Previously resolved entries follow.
[[record]]
binder = "FIXa variant Y155F/K247N/N249S/R318Y/R338E/R403E/E410N (enzyme) light: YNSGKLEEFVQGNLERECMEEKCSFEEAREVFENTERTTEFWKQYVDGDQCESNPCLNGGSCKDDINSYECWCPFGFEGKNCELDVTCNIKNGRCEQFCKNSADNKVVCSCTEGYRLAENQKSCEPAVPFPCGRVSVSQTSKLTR heavy: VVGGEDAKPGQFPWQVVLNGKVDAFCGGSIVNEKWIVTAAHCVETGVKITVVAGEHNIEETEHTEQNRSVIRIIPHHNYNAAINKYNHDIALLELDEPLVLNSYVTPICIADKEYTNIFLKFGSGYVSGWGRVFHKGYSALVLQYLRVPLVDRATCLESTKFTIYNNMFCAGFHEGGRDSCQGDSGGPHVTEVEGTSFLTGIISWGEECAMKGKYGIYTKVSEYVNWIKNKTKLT"
measured_attribute = "pKd"
assay_result = 7.34

[[record]]
binder = "FIXa variant R318Y/R338E/E410N/T412V (enzyme, also called R150Y/R170E/E240N/T242V) light: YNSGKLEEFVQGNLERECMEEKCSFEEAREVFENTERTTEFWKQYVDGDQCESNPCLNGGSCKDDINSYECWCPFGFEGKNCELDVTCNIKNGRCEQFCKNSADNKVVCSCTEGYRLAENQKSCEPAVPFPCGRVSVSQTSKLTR heavy: VVGGEDAKPGQFPWQVVLNGKVDAFCGGSIVNEKWIVTAAHCVETGVKITVVAGEHNIEETEHTEQKRNVIRIIPHHNYNAAINKYNHDIALLELDEPLVLNSYVTPICIADKEYTNIFLKFGSGYVSGWGRVFHKGYSALVLQYLRVPLVDRATCLESTKFTIYNNMFCAGFHEGGRDSCQGDSGGPHVTEVEGTSFLTGIISWGEECAMKGKYGIYTKVSRYVNWIKNKVKLT"
measured_attribute = "pKd"
assay_result = 8.05


Now take the following binder into account.
Give me measured pKd, please, for this binder: FIXa variant R318Y/R338E/N346Y/R403E/E410N (enzyme, also called R150Y/R170E/N178Y/R233E/E240N) light: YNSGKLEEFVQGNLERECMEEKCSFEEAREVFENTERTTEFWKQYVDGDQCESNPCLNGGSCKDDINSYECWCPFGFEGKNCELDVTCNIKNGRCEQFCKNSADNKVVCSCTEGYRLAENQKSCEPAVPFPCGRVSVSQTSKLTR heavy: VVGGEDAKPGQFPWQVVLNGKVDAFCGGSIVNEKWIVTAAHCVETGVKITVVAGEHNIEETEHTEQKRNVIRIIPHHNYNAAINKYNHDIALLELDEPLVLNSYVTPICIADKEYTNIFLKFGSGYVSGWGRVFHKGYSALVLQYLRVPLVDRATCLESTKFTIYYNMFCAGFHEGGRDSCQGDSGGPHVTEVEGTSFLTGIISWGEECAMKGKYGIYTKVSEYVNWIKNKTKLT
7.40
